I'd be grateful if you could share measured self-cleavage for these entries.
B1: LINE1-full (parent)
chain: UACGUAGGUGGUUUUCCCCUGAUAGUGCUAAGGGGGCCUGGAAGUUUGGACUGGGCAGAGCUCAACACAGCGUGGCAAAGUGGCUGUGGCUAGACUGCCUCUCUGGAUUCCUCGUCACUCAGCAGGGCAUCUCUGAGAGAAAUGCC

variants of: B1; assay: self-cleavage, relative activity (ratio to wild type); higher = more cleavage; in vitro, sequencing; the parent is a self-cleaving ribozyme
Write the value as a bare number.

Entry C123A A138G : reported self-cleavage = ?
1.82

Entry A30G C118U : reported self-cleavage = ?
1.93

I would be grateful if you could share the reported self-cleavage for G72A U130C .
1.85

Entry U26C U81A has what self-cleavage?
1.68

Give its self-cleavage value. Item: U5C G32A
1.06

Report self-cleavage for G8U C128U please.
1.14

# get_value(readout='self-cleavage', item= U112A A140G )
1.46

Looking for the measured self-cleavage of U26A G70A , can you help?
0.11

What value of self-cleavage has been reported for the following variant? A2G A64C
0.59

For the variant shown here, U62A U143G , give the reported self-cleavage.
0.08

Which self-cleavage reading was recorded for the variant C3U C16U ?
0.76

Reference source for all entries: the RNAGym collection of RNA variant scans (doi:10.7554/elife.90254)
